- study.system: h P2X3 (Homo sapiens, UniProt P56373)
- Sequence (P56373 1-397): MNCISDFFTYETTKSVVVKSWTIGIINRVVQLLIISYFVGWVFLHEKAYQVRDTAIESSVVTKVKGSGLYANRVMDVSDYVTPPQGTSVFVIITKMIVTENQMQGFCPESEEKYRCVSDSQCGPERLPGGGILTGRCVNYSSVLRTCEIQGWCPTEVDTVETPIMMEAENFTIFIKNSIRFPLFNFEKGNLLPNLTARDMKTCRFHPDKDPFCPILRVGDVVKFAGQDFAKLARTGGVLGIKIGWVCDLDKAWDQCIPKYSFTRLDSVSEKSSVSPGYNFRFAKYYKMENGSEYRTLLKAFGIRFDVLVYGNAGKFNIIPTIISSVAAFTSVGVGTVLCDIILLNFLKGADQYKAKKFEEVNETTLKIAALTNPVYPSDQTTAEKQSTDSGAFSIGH
- assay: In vitro electrophysiology assay for P2X3 (Sophion Qube automated patch-clamp, α,β-MeATP agonist)
- Type: cell-based
- condition.label: Table 2; whole-cell patch clamp, 800 nM α,β-MeATP, 10 min antagonist preincubation; read-out: h P2X3 (pIC50 range of activity) (converted)
readout.name: IC50

Some solved entries appear below for comparison.
- compound: "Cc1ccc(CNc2nncc3ccc(-c4ncc(C)s4)cc23)nn1"
  study.system: "h P2X3 (Homo sapiens, UniProt P56373)"
  result: "< 316 nM"
- compound: "C[C@@H](Nc1nnc(C2CC2)c2ccc(-c3ccc(F)cc3)cc12)c1cnc(C(F)(F)F)nc1"
  study.system: "h P2X3 (Homo sapiens, UniProt P56373)"
  result: "316 to 3160 nM"
- compound: "Cc1ccc(C(C)Nc2nnc(C3CCOCC3)c3ccc(-c4ccc(F)cn4)cc23)nn1 (single isomer, unassigned)"
  study.system: "h P2X3 (Homo sapiens, UniProt P56373)"
  result: "316 to 3160 nM"

Now consider the entry below.
Reported IC50 for Cc1ccc(C(C)Nc2nnc(C3CC3)c3ccc(-c4ccn(C)n4)cc23)nn1 (stereo not shown) [Example 19] was 316 to 3160 nM

Where do the numbers come from? From patent US12534455B2.
